- ASSAY NAME: in vivo
- CONDITION LABEL: rat, po, 50 g/kg, Tmax, Normal group rats, oral AE-PM 50 g/kg, plasma, n = 6
OBSERVATION TYPE: Tmax (min)

O=C(O)c1cc(O)c(O)c(O)c1 [Gallic acid, gallic acid] | 15

* * *

- ASSAY NAME: Pharmacokinetics of AE-PM components and their phase II metabolites in rat plasma after single oral administration (UHPLC-MS/MS, with and without sulfatase hydrolysis)
- CONDITION LABEL: rat, plasma, po, 50 g/kg, CLz/F, Normal group rats; oral AE-PM 50 g/kg; plasma; n = 6
OBSERVATION TYPE: CL/F

Oc1cc(O)c2c(c1)O[C@H](c1ccc(O)c(O)c1)[C@@H](O)C2 | 26.4 mL/min/kg
Cc1cc(O)c2c(c1)C(=O)c1cc(O)cc(O)c1C2=O | 98.1 mL/min/kg
COc1cc(O)c2c(c1)C(=O)c1cc(C)cc(O[C@@H]3O[C@H](CO)[C@@H](O)[C@H](O)[C@H]3O)c1C2=O [P-glu, physcion-8-O-β-D-glucoside] | 147 mL/min/kg
Cc1cc(O[C@@H]2O[C@H](CO)[C@@H](O)[C@H](O)[C@H]2O)c2c(c1)C(=O)c1cc(O)cc(O)c1C2=O [E-glu, emodin-8-O-β-D-glucoside] | 177 mL/min/kg
OC[C@H]1O[C@@H](Oc2c(O)cc(O)cc2/C=C/c2ccc(O)cc2)[C@H](O)[C@@H](O)[C@@H]1O | 25.9 mL/min/kg
O=C1c2cccc(O)c2C(=O)c2c(O)cc(CO)cc21 | 93.6 mL/min/kg
COc1cc(O)c2c(c1)C(=O)c1cc(C)cc(O)c1C2=O | 12 mL/min/kg

* * *

- ASSAY NAME: Pharmacokinetics of AE-PM components and their phase II metabolites in rat plasma after single oral administration (UHPLC-MS/MS, with and without sulfatase hydrolysis)
- CONDITION LABEL: rat, plasma, po, 50 g/kg, MRT (0-∞), CCl4 group rats; oral AE-PM 50 g/kg; plasma; n = 6
Each record here notes measured MRT inf.
OBSERVATION TYPE: MRT inf (h)

Oc1cc(O)c2c(c1)O[C@H](c1ccc(O)c(O)c1)[C@@H](O)C2 | 11.2
COc1cc(O)c2c(c1)C(=O)c1cc(C)cc(O[C@@H]3O[C@H](CO)[C@@H](O)[C@H](O)[C@H]3O)c1C2=O [P-glu, physcion-8-O-β-D-glucoside] | 7.48
O=C1c2cccc(O)c2C(=O)c2c(O)cc(CO)cc21 | 6.47

* * *

Each record here notes measured Tmax.
- ASSAY NAME: Pharmacokinetics of AE-PM components and their phase II metabolites in rat plasma after single oral administration (UHPLC-MS/MS, with and without sulfatase hydrolysis)
- CONDITION LABEL: rat, plasma, po, 50 g/kg, Tmax, ANIT group rats; oral AE-PM 50 g/kg; plasma; n = 6
OBSERVATION TYPE: Tmax (min)

COc1cc(O)c2c(c1)C(=O)c1cc(C)cc(O)c1C2=O [Physcion, physcion] | 45
COc1cc(O)c2c(c1)C(=O)c1cc(C)cc(O[C@@H]3O[C@H](CO)[C@@H](O)[C@H](O)[C@H]3O)c1C2=O [P-glu, physcion-8-O-β-D-glucoside] | 60
OC[C@H]1O[C@@H](Oc2c(O)cc(O)cc2/C=C/c2ccc(O)cc2)[C@H](O)[C@@H](O)[C@@H]1O [TSG] | 30
Cc1cc(O[C@@H]2O[C@H](CO)[C@@H](O)[C@H](O)[C@H]2O)c2c(c1)C(=O)c1cc(O)cc(O)c1C2=O [E-glu, emodin-8-O-β-D-glucoside] | 60
Oc1cc(O)c2c(c1)O[C@H](c1ccc(O)c(O)c1)[C@@H](O)C2 [Catechin, catechin] | 60
O=C1c2cccc(O)c2C(=O)c2c(O)cc(CO)cc21 [Aloe-emodin, aloe-emodin] | 15

* * *

- ASSAY NAME: Pharmacokinetics of AE-PM components and their phase II metabolites in rat plasma after single oral administration (UHPLC-MS/MS, with and without sulfatase hydrolysis)
- CONDITION LABEL: rat, plasma, po, 50 g/kg, Cmax, CCl4 group rats; oral AE-PM 50 g/kg; plasma; n = 6
OBSERVATION TYPE: log10(Cmax) (log10 of the value in ng/mL)

COc1cc(O)c2c(c1)C(=O)c1cc(C)cc(O[C@@H]3O[C@H](CO)[C@@H](O)[C@H](O)[C@H]3O)c1C2=O [P-glu, physcion-8-O-β-D-glucoside] | 2.32
O=C1c2cccc(O)c2C(=O)c2c(O)cc(CO)cc21 | 3.41
OC[C@H]1O[C@@H](Oc2c(O)cc(O)cc2/C=C/c2ccc(O)cc2)[C@H](O)[C@@H](O)[C@@H]1O | 4.70
Cc1cc(O)c2c(c1)C(=O)c1cc(O)cc(O)c1C2=O | 3.81
COc1cc(O)c2c(c1)C(=O)c1cc(C)cc(O)c1C2=O | 3.77
Oc1cc(O)c2c(c1)O[C@H](c1ccc(O)c(O)c1)[C@@H](O)C2 | 2.66
Cc1cc(O[C@@H]2O[C@H](CO)[C@@H](O)[C@H](O)[C@H]2O)c2c(c1)C(=O)c1cc(O)cc(O)c1C2=O [E-glu, emodin-8-O-β-D-glucoside] | 3.77

* * *

Each record here notes measured log10(Vd/F).
- ASSAY NAME: Pharmacokinetics of AE-PM components and their phase II metabolites in rat plasma after single oral administration (UHPLC-MS/MS, with and without sulfatase hydrolysis)
- CONDITION LABEL: rat, plasma, po, 50 g/kg, Vz/F, CCl4 group rats; oral AE-PM 50 g/kg; plasma; n = 6
OBSERVATION TYPE: log10(Vd/F) (log10 of the value in L/kg)

COc1cc(O)c2c(c1)C(=O)c1cc(C)cc(O[C@@H]3O[C@H](CO)[C@@H](O)[C@H](O)[C@H]3O)c1C2=O [P-glu, physcion-8-O-β-D-glucoside] | 1.91
Oc1cc(O)c2c(c1)O[C@H](c1ccc(O)c(O)c1)[C@@H](O)C2 | 1.86
COc1cc(O)c2c(c1)C(=O)c1cc(C)cc(O)c1C2=O | 0.85
O=C1c2cccc(O)c2C(=O)c2c(O)cc(CO)cc21 | 1.18
Cc1cc(O[C@@H]2O[C@H](CO)[C@@H](O)[C@H](O)[C@H]2O)c2c(c1)C(=O)c1cc(O)cc(O)c1C2=O [E-glu, emodin-8-O-β-D-glucoside] | 0.91
Cc1cc(O)c2c(c1)C(=O)c1cc(O)cc(O)c1C2=O | 1.83
OC[C@H]1O[C@@H](Oc2c(O)cc(O)cc2/C=C/c2ccc(O)cc2)[C@H](O)[C@@H](O)[C@@H]1O | -0.16

* * *

- ASSAY NAME: Pharmacokinetics of AE-PM components and their phase II metabolites in rat plasma after single oral administration (UHPLC-MS/MS, with and without sulfatase hydrolysis)
- CONDITION LABEL: rat, plasma, po, 50 g/kg, Tmax, CCl4 group rats; oral AE-PM 50 g/kg; plasma; n = 6
OBSERVATION TYPE: Tmax (min)

COc1cc(O)c2c(c1)C(=O)c1cc(C)cc(O[C@@H]3O[C@H](CO)[C@@H](O)[C@H](O)[C@H]3O)c1C2=O [P-glu, physcion-8-O-β-D-glucoside] | 15
Cc1cc(O[C@@H]2O[C@H](CO)[C@@H](O)[C@H](O)[C@H]2O)c2c(c1)C(=O)c1cc(O)cc(O)c1C2=O [E-glu, emodin-8-O-β-D-glucoside] | 60
OC[C@H]1O[C@@H](Oc2c(O)cc(O)cc2/C=C/c2ccc(O)cc2)[C@H](O)[C@@H](O)[C@@H]1O | 45
COc1cc(O)c2c(c1)C(=O)c1cc(C)cc(O)c1C2=O | 60
Oc1cc(O)c2c(c1)O[C@H](c1ccc(O)c(O)c1)[C@@H](O)C2 | 30
O=C1c2cccc(O)c2C(=O)c2c(O)cc(CO)cc21 | 15

* * *

Each record here notes measured Vd/F.
- ASSAY NAME: Pharmacokinetics of AE-PM components and their phase II metabolites in rat plasma after single oral administration (UHPLC-MS/MS, with and without sulfatase hydrolysis)
- CONDITION LABEL: rat, plasma, po, 50 g/kg, Vz/F, Normal group rats; oral AE-PM 50 g/kg; plasma; n = 6
OBSERVATION TYPE: Vd/F (L/kg)

OC[C@H]1O[C@@H](Oc2c(O)cc(O)cc2/C=C/c2ccc(O)cc2)[C@H](O)[C@@H](O)[C@@H]1O [TSG] | 4.37
Oc1cc(O)c2c(c1)O[C@H](c1ccc(O)c(O)c1)[C@@H](O)C2 [Catechin, catechin] | 237
Cc1cc(O[C@@H]2O[C@H](CO)[C@@H](O)[C@H](O)[C@H]2O)c2c(c1)C(=O)c1cc(O)cc(O)c1C2=O [E-glu, emodin-8-O-β-D-glucoside] | 60.2

Every entry's value here was drawn from paper PMC8245786.
